Test system: SNB-19 CNS
Assay: NCI-60 one-dose screen, 48 h (100 = growth as untreated, 0 = no growth, -100 = all killed)
Conditions: 10 µM unless noted
Compounds without any hit were thinned out: in the full panel of roughly 83,000, 20% have a hit.
Strictly below 70% in growth: Criterion met. Otherwise: Criterion not met.

C=C(C)[C@@H]1CC[C@]2(C(=O)n3ccnc3)CC[C@]3(C)[C@H](CC[C@@H]4[C@@]5(C)CCCNC(C)(C)[C@@H]5CC[C@]43C)[C@@H]12 | Criterion met
COc1cc(-c2csc(NC(=O)Nc3ccc(C(F)(F)F)cc3)n2)cc(OC)c1OC | Criterion met
Cc1cccc(C)c1NCc1nnc(-c2ccco2)o1 | Criterion not met
COc1ccc2[nH]c(-c3ccccc3)c(C=C(C#N)C#N)c2c1 | Criterion not met

Now consider a different compound.
Consider the compound COc1ccc2cc(/C=C3\N=C(c4cc(OC)c(OC)c(OC)c4)OC3=O)c(OC)nc2c1 . Is its growth strictly less than 70%?
Criterion not met

----------
System: ACHN renal
Assay: NCI-60 one-dose screen, 48 h (100 = growth as untreated, 0 = no growth, -100 = all killed)
Details: 10 µM unless noted
This is part of a sample that, as a whole, favours compounds with a hit. Of some 83,000 tested, about 20% had one in any assay.
# growth values compiled below
// units = %; emit number, no label

Here's what some known entries look like.
Sc1cccc2cccnc12 | 30.1
C(=C\c1cn(-c2ccccc2)nc1-c1ccccc1)/c1nnc(-c2c[nH]c3ccccc23)o1 | 40
COc1cc(NC(=O)c2cc(O)c(C/C=C(\C)CCC=C(C)C)c(O)c2)cc2c1O[C@]1(C)CC[C@@H](O)C(C)(C)[C@H]1C2 | 4.47

// below: growth requested for another compound
For the compound CCC1=C[C@H]2CN(CCc3c([nH]c4ccccc34)[C@@](C(=O)OC)(c3cc4c(cc3OC)N(C)[C@H]3[C@@](O)(C(=O)OC)[C@H](OC(C)=O)[C@]5(CC)[C@@H]6C[C@@H]6CN6CC[C@]43[C@@H]65)C2)C1 , what growth is on record?
19.1

----------
Tested on: SK-OV-3 ovarian
Experiment: NCI-60 one-dose screen, 48 h (100 = growth as untreated, 0 = no growth, -100 = all killed)
Details: 10 µM unless noted
The panel holds about 83,000 compounds, 20% with a hit somewhere; the sample as a whole holds those more often.
metric: growth (%)
Report the value in % with no unit label.

Reference set, count: 10
Cc1[nH]c2ncnc(Oc3ccc(NC(=O)Nc4ccc(Cl)c(C(F)(F)F)c4)cc3)c2c1C | 91.9
O=C1c2ccccc2C(=O)c2c1oc1c2c(=O)[nH]c2ccc(Cl)cc21 | 1.64
COC(=O)/C=C1\SC(=Nc2cccc(OC)c2)N(CCc2c[nH]c3ccccc23)C1=O | 72.4
O=C(O)CCNC1CCCCC1 | 101
O=C1Nc2ccc(Cl)cc2/C1=N/c1nc(-c2ccc(F)cc2)cs1 | 56.4
COc1ccc2nc(-c3ccc(OC)c(OC)c3)cc(-c3nnc(SCC(=O)Nc4ccc(C(C)=O)cc4)o3)c2c1 | 109
COc1ccc(C2N(c3cc(OC)c(OC)c(OC)c3)C(=O)C2(F)F)cc1F (stereo not drawn) | 75.5
C=C1C(=O)O[C@H]2[C@H]1CC/C(C=Nc1c(N)cc(C(F)(F)F)cc1Br)=C\CC[C@@]1(C)O[C@@H]21 | 83.1
COc1cc(/C=C/C(=O)c2ccc(NC(=O)CSc3nnc(-c4cc(OC)c(OC)c(OC)c4)n3-c3ccccc3)cc2)cc(OC)c1OC | 38
O=c1[nH]c(-c2cccc(F)c2)cc2cc(F)ccc12 | 26.1

Next up:
Entry under review: O=C1Nc2ccc(Br)cc2/C1=N\N=C/c1cn(Cc2ccccc2)c2ccccc12 . Reported growth?
76.2

----------
Tested on: NCI-H23 lung
Test: NCI-60 one-dose screen, 48 h (100 = growth as untreated, 0 = no growth, -100 = all killed)
Conditions: 10 µM unless noted
The panel holds about 83,000 compounds, 20% with a hit somewhere; the sample as a whole holds those more often. Active and inactive are the calls of the source. The calls were made as follows: active = growth percent below 10; inactive = the rest.
metric: growth

Completed entries (count: 3):
CCCS(=O)(=O)Nc1ccc(F)c(C(=O)c2c[nH]c3ncc(-c4ccc(OCCCC5CCCCN5)nc4)cc23)c1F (stereo not given) | 80.7% (inactive)
CCOC(=O)CC[C@H](NC(=O)c1ccc(NC)c2ccccc12)C(=O)OCC | 105% (inactive)
O=C1CC23OC(C(O)c4ccccc4N12)C1C(c2ccccc2)=NOC13 (stereo not given) | 66.7% (inactive)

growth for COC(=O)c1nc(-c2ccccc2)oc1S(=O)(=O)n1nc(C)cc1N ?
92.1% (inactive)

// query: COc1ccc2c(c1)Oc1nc(N)c(C#N)c(N)c1C2Sc1ccc(O)cc1 (stereo not given)
93% (inactive)

// next record Cc1[nH]c2ncnc(Oc3ccc(NC(=O)Nc4ccc(Cl)c(C(F)(F)F)c4)cc3)c2c1C
56.7% (inactive)

What do we get for CC(=O)Oc1ccc(O)cc1 ?
95.2% (inactive)

What would you report for c1cc(CNC23CC4CC(CC(C4)C2)C3)cc(C[N+](Cc2cccc(CNC34CC5CC(CC(C5)C3)C4)c2)(Cc2cccc(CNC34CC5CC(CC(C5)C3)C4)c2)Cc2cccc(CNC34CC5CC(CC(C5)C3)C4)c2)c1 (stereo not given) ?
42.1% [42 µM] (inactive)

----------
System: SNB-19 CNS
Assay: NCI-60 one-dose screen, 48 h (100 = growth as untreated, 0 = no growth, -100 = all killed)
Conditions: 10 µM unless noted
About 83,000 compounds went through this panel and 20% of them were active in at least one assay; those are over-represented in the sample as a whole.
Respond with Satisfied for growth values of 70% and above, Not satisfied for values below.

C#C[C@@]1(O)[C@@H](CO)O[C@@H](n2ccc3c(N)ncnc32)[C@@H]1O | Not satisfied
COC(=O)CCc1cc(O)c2c(c1)[C@@H](C(=O)OC)[C@H](c1ccc(O)c(O)c1)O2 | Satisfied
COc1cc(/C=C/CO)cc(OC)c1O[C@@H]1O[C@H](CO)[C@@H](O)[C@H](O)[C@H]1O | Satisfied
CCCCn1c2cc(OCc3cn(-c4ccc(Cl)cc4)nn3)ccc2c2ccnc(C)c21 | Not satisfied
COc1ccc2[nH]c(=O)c(/C=C/C(=O)c3ccccc3OC)cc2c1 | Not satisfied
C=C1C(=O)O[C@H]2[C@H]1CC/C(COC(=O)CCCCCCCC(=O)OC/C1=C/CC[C@@]3(C)O[C@H]3[C@H]3OC(=O)C(=C)[C@@H]3CC1)=C\CC[C@@]1(C)O[C@@H]21 | Not satisfied
CC(/C=C/c1ccccc1)=N/NC(=O)c1ccncc1 | Satisfied
CN1CCN(/C=C2\CC(C(=O)NCc3ccc(Cl)cc3Cl)NC2=O)CC1 (stereo not drawn) | Satisfied
COc1ccc(-c2cc(-c3nnc(SCC(=O)Nc4ccc(/C(C)=N\O)cc4)o3)c3ccccc3n2)cc1 | Satisfied
COc1ccc2c(c1)OC13Oc4cc(OC)ccc4C=C1CCCCC3=C2 | Satisfied

# evaluate next
hey, is growth for this one >= 70%? CN(CCC#N)C(=O)Nc1ccccc1
Satisfied

----------
System: SF-295 CNS
Assay: NCI-60 one-dose screen, 48 h (100 = growth as untreated, 0 = no growth, -100 = all killed)
Conditions: 10 µM unless noted
This is part of a sample that, as a whole, favours compounds with a hit. Of some 83,000 tested, about 20% had one in any assay.
Lab note: anything with growth at or over 90% counts as satisfied; the rest go in not satisfied.

CCOC(=O)/C=C1\SC(=Nc2ccc(C#N)cc2)N(CCN2C(=O)/C(=C/C(=O)OCC)SC2=Nc2ccc(C#N)cc2)C1=O | not satisfied
Nc1cc(N)nc(SCC(=O)O)n1 | satisfied

Given N#CC1(C#N)C2=C(CCCC2)NC(c2c(F)cccc2Cl)C1(C#N)C#N (centres undefined) , state whether its growth is at least 90%.
not satisfied

// repeat for COC(=O)/C=C1\SC(=Nc2cccc(Cl)c2)N(CCc2c[nH]c3ccccc23)C1=O and report
not satisfied

What about this compound? CCOC(=O)c1c(C)nc2c(c1N)/C(=C/c1ccccn1)C(=O)N2Cc1ccccc1
not satisfied

Next up: O=C1Nc2ccc(Br)cc2/C1=N\N=C/c1cn(Cc2ccccc2)c2ccccc12
satisfied

Again, but for Cc1nccc2c3ccc(OCc4cn(-c5ccc(Br)cc5)nn4)cc3n(CC(C)C)c12
not satisfied

Please answer likewise for NC(=O)CN1C(=O)c2ccccc2C1=O
satisfied

----------
System: SF-295 CNS
Assay: NCI-60 one-dose screen, 48 h (100 = growth as untreated, 0 = no growth, -100 = all killed)
Conditions: 10 µM unless noted
About 83,000 compounds went through this panel and 20% of them were active in at least one assay; those are over-represented in the sample as a whole.
metric: growth (%)
Please respond with the number in % and leave the unit unwritten.

Check out these entries, answers already filled in.
Nc1c(C(=O)Nc2ccccn2)sc2nc3c(cc12)CCCCCC3 | 0.944
O=C1CS/C(=N/c2nnc(-c3ccc(O)cc3)s2)N1 | 93.9

Lab note: need growth for C=C1C(=O)O[C@H]2[C@H]1CC/C(COC(=O)n1ccnc1)=C\CC[C@@]1(C)O[C@@H]21 on SF-295 CNS, anyone have it?
100

Request: COc1cc(C(=O)N2CCN(c3ccccc3OC)CC2)c(NC(=O)c2cnccn2)cc1OCc1ccccc1
97.5

Each recorded value in this set is attributed to PubChem BioAssay (NCI).
